Test: Partition coefficient, log p of the compound
Type: physicochemical
Conditions: octanol/water
experimental_readout: logP

[[record]]
compound = "O=C(c1ccc(Cl)cc1)N1CCN(c2nnc(-c3ccc([N+](=O)[O-])s3)s2)CC1"
experimental_readout = "logP"
val = 2.29

[[record]]
compound = "O=C(c1ccc(Br)s1)N1CCN(c2nnc(-c3ccc([N+](=O)[O-])o3)s2)CC1"
experimental_readout = "logP"
val = 2.22

[[record]]
compound = "O=C(c1ccccc1)N1CCN(c2nnc(-c3ccc([N+](=O)[O-])o3)s2)CC1"
experimental_readout = "logP"
val = 2.17

[[record]]
compound = "O=C(c1ccccc1Cl)N1CCN(c2nnc(-c3ccc([N+](=O)[O-])o3)s2)CC1"
experimental_readout = "logP"
val = 1.95

[[record]]
compound = "O=C(c1ccc(Cl)s1)N1CCN(c2nnc(-c3ccc([N+](=O)[O-])s3)s2)CC1"
experimental_readout = "logP"
val = 2.27


====

# pIC50 annotations
System: Leishmania major
Experiment: Antileishmanial activity against Leishmania major MRHO/IR/75/ER promastigotes by MTT assay
Assay type: functional, organism-based
pIC50: −log10 of the molar value.
experimental_readout: pIC50

[[record]]
compound = "O=C(c1ccc(Br)s1)N1CCN(c2nnc(-c3ccc([N+](=O)[O-])o3)s2)CC1"
qualifying_sign = "="
val = 4.88

[[record]]
compound = "O=C(c1ccc(Cl)cc1)N1CCN(c2nnc(-c3ccc([N+](=O)[O-])s3)s2)CC1"
qualifying_sign = "="
val = 4.62

[[record]]
compound = "O=C(c1ccc(Br)s1)N1CCN(c2nnc(-c3ccc([N+](=O)[O-])s3)s2)CC1"
qualifying_sign = "="
val = 4.61

[[record]]
compound = "O=C(c1ccc(Cl)s1)N1CCN(c2nnc(-c3ccc([N+](=O)[O-])o3)s2)CC1"
qualifying_sign = "="
val = 4.93

[[record]]
compound = "O=C(c1cccc(Cl)c1)N1CCN(c2nnc(-c3ccc([N+](=O)[O-])s3)s2)CC1"
qualifying_sign = "<"
val = 4.30

[[record]]
compound = "O=C(c1cccs1)N1CCN(c2nnc(-c3ccc([N+](=O)[O-])s3)s2)CC1"
qualifying_sign = "="
val = 4.55

[[record]]
compound = "O=C(c1ccccc1)N1CCN(c2nnc(-c3ccc([N+](=O)[O-])s3)s2)CC1"
qualifying_sign = "="
val = 4.60

[[record]]
compound = "O=C(c1ccc(Cl)cc1)N1CCN(c2nnc(-c3ccc([N+](=O)[O-])o3)s2)CC1"
qualifying_sign = "="
val = 4.58

[[record]]
compound = "O=C(c1ccccc1Cl)N1CCN(c2nnc(-c3ccc([N+](=O)[O-])o3)s2)CC1"
qualifying_sign = "="
val = 4.97


====

Test system: Leishmania major
Assay: Antileishmanial activity against Leishmania major MRHO/IR/75/ER promastigotes by MTT assay
Type: functional, organism-based
experimental_readout: IC50 (µM)

[[record]]
compound = "O=C(c1ccccc1)N1CCN(c2nnc(-c3ccc([N+](=O)[O-])o3)s2)CC1"
val = 11.7

[[record]]
compound = "O=C(c1ccccc1Cl)N1CCN(c2nnc(-c3ccc([N+](=O)[O-])s3)s2)CC1"
val = 34.4

[[record]]
compound = "O=C(c1cccs1)N1CCN(c2nnc(-c3ccc([N+](=O)[O-])o3)s2)CC1"
val = 19.2

[[record]]
compound = "O=C(c1ccc(Cl)s1)N1CCN(c2nnc(-c3ccc([N+](=O)[O-])s3)s2)CC1"
val = 23.8

[[record]]
compound = "O=C(c1cccc(Cl)c1)N1CCN(c2nnc(-c3ccc([N+](=O)[O-])o3)s2)CC1"
val = 13.2

